recorded.conditions: [M+H]+; instrument: TW; calibrated with phosphatidylcholines (ESI+) and phosphatidylethanolamines (ESI-)
reported.metric: collision cross section (N2) (Å²)

| compound | reported.metric | reported.result |
| --- | --- | --- |
| CCCCCCCCCCCCCCCCCC(=O)N[C@@H](CO)[C@H](O)CCCCCCCCCCCCCCC | collision cross section (N2) | 263.1 |
| CCCCCCCCCCCCC=CC[C@@H](O)[C@H](CO[C@@H]1O[C@H](CO)[C@@H](O)C(O)C1O)NC(=O)CC=CCCCCCCCCCCCCCCCCCCCC (some centres not stated) | collision cross section (N2) | 298.2 |
| CC/C=C\C/C=C\C/C=C\C/C=C\CCCCC(=O)OC[C@H](COP(=O)([O-])OCC[N+](C)(C)C)OC(=O)CCCCC/C=C\C/C=C\C/C=C\C/C=C\CCCCC | collision cross section (N2) | 291.6 |
| CCCCC/C=C\C/C=C\CCCCCCCCCC(=O)O[C@H](CO/C=C\CCCCCCCCCCCCCC)COP(=O)(O)OCCN | collision cross section (N2) | 278.1 |
| CC/C=C\C/C=C\C/C=C\C/C=C\CCCCCCC(=O)OC[C@@H](O)COP(=O)([O-])OCC[N+](C)(C)C | collision cross section (N2) | 232.4 |
| CCCCCCCC/C=C\CCCCCCCC(=O)OC[C@@H](O)COP(=O)([O-])OCC[N+](C)(C)C | collision cross section (N2) | 230.8 |
| CCCCCCCCCCCCC=CC[C@@H](O)[C@H](COP(=O)([O-])OCC[N+](C)(C)C)NC(=O)CCCCCCCCCCCCCCC | collision cross section (N2) | 281.1 |
| CCCCC/C=C\C/C=C\C/C=C\CCCCCCC(=O)O[C@H](COC(=O)CCCCCCC/C=C\C/C=C\CCCCC)COP(=O)(O)OCCN | collision cross section (N2) | 276 |
| CC/C=C\C/C=C\C/C=C\C/C=C\C/C=C\CCCC(=O)O[C@H](CO/C=C\CCCCCCCCCCCCCC)COP(=O)(O)OCCN | collision cross section (N2) | 274.2 |
| CCCCCCCCCCCCC=CC[C@@H](O)[C@H](CO[C@@H]1O[C@H](CO)[C@@H](O)C(O)C1O)NC(=O)CC=CCCCCCCCCCCCCCC (some centres not stated) | collision cross section (N2) | 281.8 |
| CCCCCCCCCCCCCCCCCCCC(=O)N[C@@H](CO)[C@H](O)CCCCCCCCCCCCCCC | collision cross section (N2) | 269.1 |
| CCCCCCCCCCCCCCCCCCCC(=O)O[C@H](COC(=O)CCCCCCCCCCC)COP(=O)([O-])OCC[N+](C)(C)C | collision cross section (N2) | 281 |

----------
recorded.conditions: [M-H]-; instrument: DT; stepped-field
reported.metric: collision cross section (N2) (Å²)

| structure.smiles | reported.result |
| --- | --- |
| CCCCCCCC/C=C\CCCCCCCC(=O)O[C@H](COC(=O)CCCCCCCCCCCCCCC)COP(=O)(O)OC[C@H](N)C(=O)O | 278.8 |
| CCCCC/C=C\C/C=C\C/C=C\C/C=C\C/C=C\CCC(=O)O[C@H](COCCCCCCCCCCCCCCCC)COP(=O)(O)OCCN | 277.8 |
| CCCCC/C=C\C/C=C\C/C=C\C/C=C\CCCC(=O)O[C@H](COCCCCCCCCCCCCCCCC)COP(=O)(O)OCCN | 270 |

----------
recorded.conditions: [M+H]+; instrument: DT; single field, calibrated with Agilent tune mix (Agilent)
reported.metric: collision cross section (N2) (Å²)

| compound | collision cross section (N2), Å² |
| --- | --- |
| CC(C)(CO)[C@@H](O)C(=O)NCCCO | 144.7 |
| NC(=O)CC[C@H](NC(=O)Cc1ccccc1)C(=O)O | 158.7 |
| Nc1nc(=O)c2c([nH]1)NCC(CNc1ccc(C(=O)N[C@@H](CCC(=O)O)C(=O)O)cc1)N2C=O (stereo partly specified) | 196.9 |
| Cc1ncc(C[n+]2csc(CCOP(=O)(O)O)c2C)c(N)n1 [Thiamine monophosphate] | 169.7 |
| N[C@@H](CCC(=O)N[C@@H](CS)C(=O)O)C(=O)O | 157.7 |
| CC(C)C[C@H](NC(=O)CN)C(=O)O | 149.5 |
| NCCP(=O)(O)O | 128.7 |
| Nc1ncnc2c1ncn2[C@@H]1O[C@H](COP(=O)(O)OP(=O)(O)O[C@H]2O[C@H](CO)[C@@H](O)[C@H](O)[C@H]2O)[C@@H](O)[C@H]1O | 214.5 |
| N[C@@H](CCCCN[C@@H](CCC(=O)O)C(=O)O)C(=O)O | 159.8 |
| Nc1ccccc1C(=O)C[C@H](N)C(=O)O | 149.1 |
| C[S+](CC[C@H](N)C(=O)[O-])C[C@H]1O[C@@H](n2cnc3c(N)ncnc32)[C@H](O)[C@@H]1O (stereo partly specified) | 184.5 |
| Cn1c(=O)c2c(ncn2C)n(C)c1=O | 140.9 |
| CN(C)C(N)=NCCC[C@H](N)C(=O)O | 143.5 |
| Cc1cc2nc3c(=O)[nH]c(=O)nc-3n(C[C@H](O)[C@H](O)[C@H](O)COP(=O)(O)OP(=O)(O)OC[C@H]3O[C@@H](n4cnc5c(N)ncnc54)[C@H](O)[C@@H]3O)c2cc1C [Flavin adenine dinucleotide] | 247.3 |
| Nc1nc(=O)c2c([nH]1)NCC(CNc1ccc(C(=O)N[C@@H](CCC(=O)O)C(=O)O)cc1)=N2 [7,8-Dihydrofolate] | 193.6 |
| O=c1[nH]c(=O)c2ncn([C@@H]3O[C@H](COP(=O)(O)O)[C@@H](O)[C@H]3O)c2[nH]1 | 174.7 |

----------
recorded.conditions: [M+H]+; instrument: DT; stepped-field
reported.metric: collision cross section (N2) (Å²)

| compound | value.units | collision cross section (N2) |
| --- | --- | --- |
| CCC(C)[C@H](NC(=O)[C@@H](N)CCC(N)=O)C(=O)N[C@@H](CO)C(=O)N[C@H](C(=O)N[C@@H](CCCNC(=N)N)C(=O)O)C(C)C (stereo partly specified) [QISVR] | Å² | 241.4 |
| CC(C)C[C@H](NC(=O)[C@H](CC(=O)O)NC(=O)[C@@H](N)Cc1ccc(O)cc1)C(=O)N[C@@H](CC(=O)O)C(=O)N[C@@H](Cc1ccccc1)C(=O)N[C@@H](CCCCN)C(=O)O [YDLDFK] | Å² | 272.4 |
| NCCCC[C@H](NC(=O)[C@H](CC(=O)O)NC(=O)CNC(=O)[C@@H](N)CC(=O)O)C(=O)O [DGDK] | Å² | 195.8 |
| CC(C)C[C@H](NC(=O)[C@H](CO)NC(=O)[C@H](C)NC(=O)[C@@H](N)C(C)C)C(=O)N[C@@H](CCCNC(=N)N)C(=O)O [VASLR] | Å² | 232.5 |
| CC(C)C[C@H](NC(=O)[C@H](CC(=O)O)NC(=O)[C@@H](NC(=O)[C@H](CC(C)C)NC(=O)[C@@H](N)C(C)C)C(C)C)C(=O)N[C@@H](CCC(=O)O)C(=O)N[C@@H](CCCNC(=N)N)C(=O)O [VLVDLER] | Å² | 285.7 |
| CC(C)[C@H](NC(=O)[C@@H](N)CC(=O)O)C(=O)N[C@@H](CS)C(=O)N[C@@H](CCCCN)C(=O)O [DVCK] | Å² | 204.7 |

----------
recorded.conditions: [M-H]-; instrument: TW; calibrated with phosphatidylcholines (ESI+) and phosphatidylethanolamines (ESI-), doubly charged cardiolipins calibrated with poly-DL-…
reported.metric: collision cross section (N2) (Å²)

Solved entries:
| compound | collision cross section (N2) (Å²) |
| --- | --- |
| CCCCCCCCCCCCCCCC(=O)OCC(COP(=O)(O)OCCN)OC(=O)CCCCCCCC1CC1CCCC (centres undefined) [PE(31:1)] | 252.34 |
| CCCCCC/C=C\CCCCCCCC(=O)OC[C@H](O)COP(=O)(O)OC[C@@H](COC(=O)CCCCCCC/C=C\CCCCCC)OC(=O)CCCCCCCC1CC1CCCCCCCCCC (some centres undefined) [AcylPG(53:3)] | 332.67 |
| CCCCCCCC/C=C\CCCCCCCC(=O)OCC(COP(=O)(O)O)OC(=O)CCCCCCC/C=C\CCCCCCCC (centres undefined) [PA(36:2)] | 259.86 |
| CCCCCC/C=C/CCCCCCCC(=O)OC[C@@H](O)COP(=O)(O)OCC(O)CO (some centres undefined) [LPG(16:1)] | 210.68 |
| CCCCCC/C=C\CCCCCCCC(=O)OC[C@H](O)COP(=O)(O)OC[C@@H](COC(=O)CCCCCCC/C=C\CCCCCC)OC(=O)CCCCCCC/C=C/CCCCCCCCCC [AcylPG(52:3)] | 328.87 |

1 = CCCCCC/C=C\CCCCCCCC(=O)OC[C@H](COP(=O)(O)OCCNC(=O)CCCCCCCCCCCCCCC)OC(=O)CCCCCCCCCCCCCCCCC [AcylPE(50:1)]
2 = CCCCCCCCC1CC1CCCCCCCC(=O)O[C@H](CO)COP(=O)(O)OCC(O)CO (some centres undefined) [LPG(19:1)]
Q) Among 1 and 2 , which shows a numerically higher collision cross section (N2) result? Indicate which entry you chose by stating its label.
A) 1
(1: 323.73 Å², 2: 220.89 Å²)
